Target: 17β-hydroxysteroid dehydrogenase type 1 (17β-HSD type 1) (Homo sapiens)
Construct: expressed in transfected cells; host or cells: MCF-7
Sequence (P14061 whole entry): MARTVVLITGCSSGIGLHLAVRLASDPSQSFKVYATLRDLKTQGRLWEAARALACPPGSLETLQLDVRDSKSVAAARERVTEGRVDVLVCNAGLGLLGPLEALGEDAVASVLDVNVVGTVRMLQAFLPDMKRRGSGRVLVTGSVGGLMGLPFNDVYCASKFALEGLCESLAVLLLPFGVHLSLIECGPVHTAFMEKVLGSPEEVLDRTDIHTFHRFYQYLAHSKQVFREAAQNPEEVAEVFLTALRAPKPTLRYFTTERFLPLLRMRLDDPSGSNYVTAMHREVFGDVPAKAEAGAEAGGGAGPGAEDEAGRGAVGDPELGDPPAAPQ
Test: Inhibition of 17β-HSD type 1 in MCF-7 cells stably expressing the isoenzyme (tritium labeled estrone conversion, HPLC)
Type: cell-based
Settings: MCF7; 1 μM test compound; MCF-7 cells expressing 17β-HSD type 1; 2 nM tritium labeled estrone; read-out: % Inhibition HSD1 1 μM
Lab note: anything with inhibition at 1 µM at or over 20% counts as Condition met; the rest go in Condition not met.

Before answering, review these 4 worked examples.
1) CCC(C)Cn1c(-c2cc(OC)c(OC)c(OC)c2)nc2sc3c(c2c1=O)CCCC3 (stereo not shown): Condition met
2) COc1ccc(-c2nc3sc4cc(C=O)ccc4c3c(=O)n2Cc2ccccc2)cc1: Condition not met
3) COc1cc(-c2nc3sc4c(c3c(=O)n2CC(C)C)CCCC4=O)cc(OC)c1OC: Condition not met
4) O=C(OCCn1c(-c2cccs2)nc2sc3c(c2c1=O)CCCC3)c1cccs1: Condition not met

[Q] Can `CCCc1nc2sc3c(O)cccc3c2c(=O)n1Cc1cc(Br)ccc1OC` be said to have inhibition at 1 µM at or above 20%?
[A] Condition met

[Q] Can COc1cc(-c2nc3sc4c(c3c(=O)n2Cc2ccccc2)CC(C)CC4=O)cc(OC)c1OC (stereo not shown) be said to have inhibition at 1 µM at or above 20%?
[A] Condition met

[Q] Can `COc1cc(-c2nc3sc4c(Oc5ccccc5)c(C=O)ccc4c3c(=O)n2Cc2ccccc2)cc(OC)c1OC` be said to have inhibition at 1 µM at or above 20%?
[A] Condition not met

[Q] Can CCCCn1c(-c2cc(OC)c(OC)c(OC)c2Br)nc2sc3c(c2c1=O)CC(C)C(Br)C3=O (stereo not shown) be said to have inhibition at 1 µM at or above 20%?
[A] Condition not met

[Q] Can `O=c1c2c3c(sc2nc(-c2cc(O)c(O)c(O)c2)n1-c1ccccc1)CCCC3` be said to have inhibition at 1 µM at or above 20%?
[A] Condition not met

[Q] Can CCC(C)Cn1c(-c2cc(OC)c(OC)c(OC)c2Cl)nc2sc3c(c2c1=O)CCC(Cl)(Cl)C3=O (stereo not shown) be said to have inhibition at 1 µM at or above 20%?
[A] Condition met

###

Biological target: 17β-hydroxysteroid dehydrogenase type 3 (17β-HSD type 3) (Homo sapiens, UniProt P37058)
Construct: expressed in transfected cells; host or cells: MCF-7
Sequence (P37058 1-310): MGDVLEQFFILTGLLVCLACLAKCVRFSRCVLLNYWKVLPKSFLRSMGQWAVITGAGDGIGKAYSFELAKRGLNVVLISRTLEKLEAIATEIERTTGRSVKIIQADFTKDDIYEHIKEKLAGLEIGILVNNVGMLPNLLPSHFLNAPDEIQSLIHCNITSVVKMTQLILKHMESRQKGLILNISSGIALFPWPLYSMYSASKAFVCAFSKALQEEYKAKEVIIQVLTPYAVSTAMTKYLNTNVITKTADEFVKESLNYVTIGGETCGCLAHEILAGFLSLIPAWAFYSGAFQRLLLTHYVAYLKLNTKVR
Assay: Inhibition of 17β-HSD type 3 in MCF-7 cells stably expressing the isoenzyme (tritium labeled androstenedione conversion, HPLC)
Type: cell-based
Settings: MCF7; 10 μM test compound; MCF-7 cells expressing 17β-HSD type 3; 2 nM tritium labeled androstenedione; read-out: % Inhibition HSD3 10 μM
Excerpt: Biological Testing Materials and Methods 1. Inhibition of the 17β-hydroxysteroid dehydrocienase type 1, type 2 and type 3 enzyme The compounds were screened in respect of 17β-HSD enzyme activity in vitro on established MCF-7 cell lines, each stably expressing one of the respective 17β-HSD isoenzymes. The interconversion of substrate by each isoenzyme and the 17β-HSD inhibiting activity of chemical compounds in these cell lines were detected by HPLC system. […]
Lab note: anything with inhibition at 10 µM at or over 40% counts as true (1); the rest go in false (0).

1. COc1cc(-c2nc3sc4c(O)ccc(C)c4c3c(=O)n2Cc2ccccc2)c(Br)c(OC)c1OC [No. 686]: false (0)
2. CCC(C)Cn1c(-c2cc(OC)c(OC)c(OC)c2)nc2sc3c(O)cccc3c2c1=O (centres unmarked) [No. 129]: true (1)
3. COc1cc(-c2nc3sc4c(c3c(=O)n2CC2CCCO2)CCC(Br)C4=O)c(Br)c(OC)c1OC (centres unmarked) [No. 132]: false (0)
4. COc1cc(-c2nc3sc4c(c3c(=O)n2Cc2ccccc2)CCC(Cl)C4=O)c(Cl)c(OC)c1OC (centres unmarked) [No. 123]: false (0)
5. COc1ccc(-c2nc3sc4c(Oc5ccccc5)c(C)ccc4c3c(=O)n2Cc2ccccc2)cc1 [No. 21]: false (0)
6. COc1c(O)cc(-c2nc3sc4c(c3c(=O)n2-c2ccccc2)CCCC4)cc1O [No. 42]: false (0)
7. COc1cc(-c2nc3sc4c(OC(C)=O)cccc4c3c(=O)n2Cc2ccccc2)c(Br)c(OC)c1OC [No. 50]: true (1)
8. COc1cc(-c2nc3sc4c(c3c(=O)n2CC(C)C)C(Br)CCC4=O)cc(OC)c1OC (centres unmarked) [No. 135]: true (1)
9. COc1cc(-c2nc3sc4c(c3c(=O)n2-c2ccccc2)CCCC4=O)cc(OC)c1OC [No. 11]: false (0)
10. CCOC(=O)C1=Cc2sc3nc(-c4ccc(OC)cc4)n(Cc4ccccc4)c(=O)c3c2CC1 [No. 15]: true (1)

[Q] Can COCCn1c(-c2cc(OC)c(OC)c(OC)c2Br)nc2sc3c(c2c1=O)CCC(Br)C3=O (centres unmarked) [No. 111] be said to have inhibition at 10 µM at or above 40%?
[A] true (1)

[Q] Can COc1cc(-c2nc3sc4c(c3c(=O)n2Cc2ccccc2)CC(C)CC4)cc(OC)c1OC (centres unmarked) [No. 687] be said to have inhibition at 10 µM at or above 40%?
[A] false (0)

[Q] Can COc1cc(-c2nc3sc4c(c3c(=O)n2Cc2ccccc2)C(C)CCC4)cc(OC)c1OC (centres unmarked) [No. 683] be said to have inhibition at 10 µM at or above 40%?
[A] false (0)

[Q] Can CCCc1nc2sc3c(O)c(Br)ccc3c2c(=O)n1Cc1ccc(Br)o1 [No. 107] be said to have inhibition at 10 µM at or above 40%?
[A] true (1)

[Q] Can CCCCn1c(-c2cccs2)nc2sc3c(c2c1=O)CCCC3=O [No. 134] be said to have inhibition at 10 µM at or above 40%?
[A] false (0)

[Q] Can O=Cc1nc2c(c(=O)n1Cc1ccccc1)C1=C(CCCC1)S2(=O)=O [No. 33] be said to have inhibition at 10 µM at or above 40%?
[A] false (0)

###

In this section we review reported inhibition at 10 µM values for a set of compounds.
Target: 17β-hydroxysteroid dehydrogenase type 3 (17β-HSD type 3) (Homo sapiens, UniProt P37058)
Construct: expressed in transfected cells; host or cells: MCF-7
Sequence (P37058 1-310): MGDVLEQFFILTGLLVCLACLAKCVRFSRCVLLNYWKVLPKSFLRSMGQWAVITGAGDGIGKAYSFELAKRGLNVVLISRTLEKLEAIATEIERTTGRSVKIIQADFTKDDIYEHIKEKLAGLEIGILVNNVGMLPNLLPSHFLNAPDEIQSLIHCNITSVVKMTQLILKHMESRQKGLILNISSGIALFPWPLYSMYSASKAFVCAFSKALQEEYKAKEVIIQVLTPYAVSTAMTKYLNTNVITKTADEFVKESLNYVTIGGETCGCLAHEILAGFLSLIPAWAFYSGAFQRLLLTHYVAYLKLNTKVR
Test: Inhibition of 17β-HSD type 3 in MCF-7 cells stably expressing the isoenzyme (tritium labeled androstenedione conversion, HPLC)
Format: cell-based
Details: MCF7; 10 μM test compound; MCF-7 cells expressing 17β-HSD type 3; 2 nM tritium labeled androstenedione; read-out: % Inhibition HSD3 10 μM
API: value field is a number in %; no unit string.

1. COc1cccc(-c2nc3sc4c(c3c(=O)n2Cc2ccccc2)CCC(Br)(Br)C4=O)c1: 26.2
2. COc1cccc(-c2nc3sc4c(OC(C)=O)cccc4c3c(=O)n2Cc2ccccc2)c1: 33.5
3. CCSC1=C(C=O)CCc2c1sc1nc(-c3cc(OC)c(OC)c(OC)c3)n(Cc3ccccc3)c(=O)c21: 47.1
4. CC(=O)OCc1nc2sc3c(c2c(=O)n1Cc1ccccc1)CCCC3=O: 16.3
5. O=C1c2sc3nc(-c4cccs4)n(Cc4ccccc4)c(=O)c3c2CCC1Br (centres unmarked): 25.6

Measured inhibition at 10 µM of `CCSC1=C(C=O)CCc2c1sc1nc(-c3ccc(OC)cc3)n(Cc3ccccc3)c(=O)c21` : 100

Measured inhibition at 10 µM of `COc1cc(-c2nc3sc4c(O)cccc4c3c(=O)n2Cc2ccc(Br)o2)cc(OC)c1OC` : 56.2

Measured inhibition at 10 µM of COc1cc(-c2nc3sc4c(c3c(=O)n2Cc2ccccc2)CCC(Br)C4=O)c(Br)c(OC)c1OC (centres unmarked) : 52.2

These measurements were taken from patent US7524853B2.
